tested on: RPMI 8226 human Multiple Myeloma cancer cells; assay: Cell proliferation assay (CellTiter-Glo) in RPMI 8226; format: cell-based; conditions: Homo sapiens; concomitant everolimus, RPMI 8226; read-out: IC50 for Compound A, cell growth
PROPERTY: IC50 (nM)

[
  {
    "MOLECULE SMILES": "Cn1c(=O)n(-c2ccc(C(C)(C)C#N)cc2)c2c3cc(-c4cnc5ccccc5c4)ccc3ncc21",
    "TARGET OR SYSTEM": "RPMI 8226 human Multiple Myeloma cancer cells",
    "PROPERTY": "IC50",
    "OBSERVED": 16
  }
]

---

Test system: MDA-MB-361 Human Breast Cancer cells
Experiment: Cell proliferation assay (CellTiter-Glo) in MDA-MB-361
Assay type: cell-based
Settings: Homo sapiens; single agent, MDA-MB-361, 72 hrs; read-out: IC50, inhibition of cell growth
Procedure: Celt Proliferation Assay: Cell viability was determined by measuring cellular ATP content using the CellTiter-Glo® Luminescent Cell Viability Assay (Promega #G7573) according to manufacturer's protocol. […]
pIC50: −log10 of the molar value.

[
  {
    "MOLECULE SMILES": "Cn1c(=O)n(-c2ccc(C(C)(C)C#N)cc2)c2c3cc(-c4cnc5ccccc5c4)ccc3ncc21",
    "pIC50": "~7.22"
  }
]

---

test system: MFE296 human endometrial cancer cells; test: Cell proliferation assay (CellTiter-Glo) in MFE296; assay type: cell-based; conditions: Homo sapiens, MFE-296, single agent, read-out: IC50, inhibition of cell growth

[
  {
    "MOLECULE SMILES": "Cn1c(=O)n(-c2ccc(C(C)(C)C#N)cc2)c2c3cc(-c4cnc5ccccc5c4)ccc3ncc21",
    "IC50, nM": 78
  }
]

---

tested on: GA-10 human Non-Hodgkin's Lymphoma cancer cells; assay: Cell proliferation assay (CellTiter-Glo) in GA-10; type: cell-based; conditions: Homo sapiens; single agent, GA-10, 72 hrs; read-out: IC50, inhibition of cell growth
PROPERTY: IC50

[
  {
    "COMPOUND": "Cn1c(=O)n(-c2ccc(C(C)(C)C#N)cc2)c2c3cc(-c4cnc5ccccc5c4)ccc3ncc21 [Compound A]",
    "PROPERTY": "IC50",
    "OBSERVED": "~25 nM"
  }
]

---

tested on: NCI-H23 human non-small cell lung cancer cells; experiment: Cell proliferation assay (CellTiter-Glo) in NCI-H23; assay type: cell-based; conditions: Homo sapiens, NCI-H23, in combination with 5 nM everolimus; read-out: IC50 for Compound A, cell growth
pIC50: −log10 of the molar value.

[
  {
    "MOLECULE SMILES": "Cn1c(=O)n(-c2ccc(C(C)(C)C#N)cc2)c2c3cc(-c4cnc5ccccc5c4)ccc3ncc21",
    "pIC50": 8.00
  }
]

---

tested on: NCI-H23 human non-small cell lung cancer cells; experiment: Cell proliferation assay (CellTiter-Glo) in NCI-H23; assay type: cell-based; conditions: Homo sapiens, NCI-H23, 72 h, single agent, extended dose matrix, 72 hours (FIG. 6); read-out: IC50, inhibition of cell growth
# Lookup of reported IC50 keyed by entry

[
  {
    "COMPOUND": "CO[C@H]1C[C@@H]2CC[C@@H](C)[C@@](O)(O2)C(=O)C(=O)N2CCCC[C@H]2C(=O)O[C@H]([C@H](C)C[C@@H]2CC[C@@H](OCCO)[C@H](OC)C2)CC(=O)[C@H](C)/C=C(\\C)[C@@H](O)[C@@H](OC)C(=O)[C@H](C)C[C@H](C)/C=C/C=C/C=C/1C [everolimus, 40-O-(2-hydroxyethyl)-rapamycin, reference compound]",
    "IC50": "> 1000 nM"
  },
  {
    "COMPOUND": "Cn1c(=O)n(-c2ccc(C(C)(C)C#N)cc2)c2c3cc(-c4cnc5ccccc5c4)ccc3ncc21",
    "IC50": "80 nM"
  }
]

---

system: p4EBP1 T37/46 in MFE296 cells; test: High content p4EBP1 T37/46 assay in MFE296 cells; assay type: cell-based, human; conditions: Homo sapiens, MFE-296; single agent, MFE296, 18 hrs; read-out: IC50, reduction of p4EBP1 signal

[
  {
    "COMPOUND": "Cn1c(=O)n(-c2ccc(C(C)(C)C#N)cc2)c2c3cc(-c4cnc5ccccc5c4)ccc3ncc21 [Compound A]",
    "TARGET OR SYSTEM": "p4EBP1 T37/46 in MFE296 cells",
    "IC50 / nM": 16
  }
]
